The measurements presented in this section are drawn from patent US20240066028A1.

Assay: Study BHV3500-107 Cohort 1: zavegepant 50 mg SoftGel QD PK (fasted Days 1-10, fed Days 11-14)
Assay type: in vivo, humans
Settings: human, in vivo, oral, 50 mg, Study 107, Cohort 1, Day 1; 50 mg SoftGel single dose, fasted; read-out: AUC0-24, Median
parameter.measured: AUC(0-t) (ng·h/mL)
# value in ng·h/mL; strip the unit string

What value of AUC(0-t) has been reported for the following molecule? Cc1cc(C[C@@H](NC(=O)N2CCC(c3cc4ccccc4[nH]c3=O)CC2)C(=O)N2CCN(C3CCN(C)CC3)CC2)cc2cn[nH]c12
16.7

* * *

Assay: Study BHV3500-107 Cohort 1: zavegepant 50 mg SoftGel QD PK (fasted Days 1-10, fed Days 11-14)
Type: in vivo, humans
Settings: human, in vivo, po, 50 mg, Cohort 1, Day 1, 50 mg SoftGel oral, fasted, single dose; Mean; read-out: Cmax
parameter.measured: Cmax (ng/mL)
# value in ng/mL; strip the unit string

What value of Cmax has been reported for the following compound? Cc1cc(C[C@@H](NC(=O)N2CCC(c3cc4ccccc4[nH]c3=O)CC2)C(=O)N2CCN(C3CCN(C)CC3)CC2)cc2cn[nH]c12
6.32
